Assign MIC to each entry below.
Tested on: Staphylococcus saprophyticus
PROTOCOL TEXT: Antibacterial activity against Staphylococcus saprophyticus ATCC 15305 measured after 18 hrs by agar dilution method
Type: functional
CONDITION: ATCC 15305, 18 h
The figure you give is taken to be in µg/mL; do not add the unit.

Consider Cc1cc(NS(=O)(=O)c2ccc([N+](=O)[O-])cc2)no1 . Its measured MIC is 2050

Consider NC(=O)N/N=C/c1ccc([N+](=O)[O-])o1 . Its measured MIC is 128

Consider Cc1cc(NS(=O)(=O)c2ccc(N)cc2)no1 . Its measured MIC is 2050

Consider O=C1CN(/N=C/c2ccc([N+](=O)[O-])o2)C(=O)N1 . Its measured MIC is 8

====

Tested on: Staphylococcus saprophyticus
PROTOCOL TEXT: Antibacterial activity against Staphylococcus saprophyticus ATCC 15305 measured after 18 hrs by broth dilution method
Assay type: functional
CONDITION: ATCC 15305, 18 h
Assign MIC to each entry below.

Consider Cc1cc(NS(=O)(=O)c2ccc(N)cc2)no1 . Its measured MIC is 4100 µg/mL

Consider O=C1CN(/N=C/c2ccc([N+](=O)[O-])o2)C(=O)N1 . Its measured MIC is 8 µg/mL

Consider Cc1cc(NS(=O)(=O)c2ccc(NO)cc2)no1 . Its measured MIC is 2050 µg/mL

Consider Cc1cc(NS(=O)(=O)c2ccc([N+](=O)[O-])cc2)no1 . Its measured MIC is 2050 µg/mL

Consider NC(=O)N/N=C/c1ccc([N+](=O)[O-])o1 . Its measured MIC is 32 µg/mL
